assay: Concentration required for inhibition of 5-hydroxytryptamine 3 receptor using [3H]GR-65630 as the radioligand
pIC50: −log10 of the molar value.
observed property: pIC50

A selection of reference data follows.
>  <molecule>
COc1cc(N)c(Cl)cc1C(=O)NC1C2CC3CC1CN(C3)C2 (stereo in doubt; 9b)

>  <pIC50>
7.74

$$$$
>  <molecule>
COc1cc(N)c(Cl)cc1C(=O)NCC1C2CC3CC1CN(C3)C2 (stereo in doubt; 9c)

>  <pIC50>
8.46

$$$$

[I] COc1cc(N)c(Cl)cc1C(=O)N[C@@H]1C2CC3CN(C2)CC31 (stereo not given in full)
[II] COc1cc(N)c(Cl)cc1C(=O)NCC1C2CC3CC1CN(C3)C2 (stereo in doubt; 9d)
[III] COc1cc(N)c(Cl)cc1C(=O)NC1C2CC3CC1CN(C3)C2 (stereo in doubt; 9a)
Problem: Please put the entries in order of rising pIC50. Give the order by naming the labels one after another as requested.
Result: III, II, I
